Entries and their GI50 values follow.
Tested on: SN12C
ASSAY_METHOD_TEXT: NCI tumour cell line growth inhibition, 48 h
Active and inactive are the calls of the source. Rule as the data show it: active = GI50 up to about 1.1 µM and inactive = higher.

Examples with answers:
COMPOUND	RECORDED_METRIC	REPORTED_RESULT
CSc1nc(SC)c2c(C)cn(Cc3ccccc3)c2n1	GI50	> 100 µM (inactive)
Cc1ccc(Nc2nc3[nH]ccc3c(=O)[nH]2)cc1	GI50	> 100 µM (inactive)
CCN(CC)c1c(-c2c(OC(C)C)c(=O)c2=O)c(=O)n2ccsc2c1OC(C)=O	GI50	> 100 µM (inactive)
O=C1C(=Cc2c(O)cc(O)cc2O)C(=O)c2ccccc21	GI50	19.5 µM (inactive)
O=S(=O)(O)c1ccc(-c2c3nc(c(-c4ccc(S(=O)(=O)O)cc4)c4ccc([nH]4)c(-c4ccc(S(=O)(=O)O)cc4)c4nc(c(-c5ccc(S(=O)(=O)O)cc5)c5ccc2[nH]5)C=C4)C=C3)cc1	GI50	42.7 µM (inactive)
C[n+]1c2ccccc2c(CNC(CCC(N)=O)C(=O)O)c2ccccc21 (centres undefined)	GI50	2.64 µM (inactive)
CN(C)C(=S)/N=c1\ss/c(=N\C(=S)N(C)C)n1-c1ccc2c(c1)OCO2	GI50	> 100 µM (inactive)
CNC(=O)c1nc[nH]c1/N=N/N(C)N	GI50	> 100 µM (inactive)

Query string: Provide only the value of recorded GI50 for CC(=O)OC1COC(n2ccc3cc(Br)c([N+](=O)[O-])cc32)C(OC(C)=O)C1OC(C)=O (centres undefined)
Result string: 30.8 µM (inactive)

###

GI50 values for the molecules below.
System: NCI-H460
ASSAY_METHOD_TEXT: NCI tumour cell line growth inhibition, 48 h
Activity calls are given as the source filed them. Rule as the data show it: active = GI50 up to about 1.1 µM and inactive = higher.

Below, 3 molecules whose answers are already recorded.
> print(dat)
                                   molecule  recorded.metric      reported.result
1  COC(=O)/C=C\C(C#N)(C#N)/N=C/c1ccc(OC)cc1             GI50   19.5 µM (inactive)
2            N/N=C(\N)SCCCCCCCCCCS/C(N)=N/N             GI50   15.9 µM (inactive)
3         Brc1c2nc3ccccc3nc2n2ccc3ccccc3c12             GI50  > 100 µM (inactive)

Query string: Give GI50; test system NCI-H460; molecule CCOC(=O)C(CNc1ccc(O)cc1)NC(=O)c1ccccc1 (centres undefined)
Result string: > 100 µM (inactive)

Query string: Fill in: GI50 on NCI-H460, entry Cc1ccc(NC(=O)c2cc(S(=O)(=O)Nc3n[nH]c(=O)[nH]3)c(SSc3cc(Cl)c(C(=O)Nc4ccc(C)cc4)cc3S(=O)(=O)Nc3n[nH]c(=O)[nH]3)cc2Cl)cc1
Result string: > 100 µM (inactive)

Query string: Please look at CSCCC(NC(c1ccccc1)c1ccccc1)[PH](=O)O (centres undefined) and tell me its recorded GI50 on NCI-H460.
Result string: > 100 µM (inactive)

###

System: KM12
ASSAY_METHOD_TEXT: NCI tumour cell line growth inhibition, 48 h
Activity calls are given as the source filed them. Rule as the data show it: active = GI50 up to about 1.1 µM and inactive = higher.
Valid outcomes are listed here; reply with one: yes (1) for active, no (0) for inactive

Recorded results for 6 molecules are shown here.
MOLECULE	CLASS_NAME
NCCCNOCCCN	no (0)
CC(=O)c1ccc(N2CCN(C3=C(Cl)C(=O)c4c(O)ccc(O)c4C3=O)CC2)cc1	no (0)
CC(=O)/C(=C\c1ccco1)C(=O)Nc1ccccc1	no (0)
CCOc1ccc(-n2c(=O)n3c(Nc4ccc(Cl)cc4)nc4c(c(=O)n(C)c(=O)n4C)n3c2=O)cc1	no (0)
CC(=O)O[C@H]1C(=O)[C@@]2(C)[C@H]([C@H](OC(=O)c3ccccc3)[C@]3(O)C[C@H](OC(=O)[C@H](O)[C@@H](NC(=O)c4ccccc4)c4ccccc4C)C(C)=C1C3(C)C)[C@]1(OC(C)=O)CO[C@@H]1C[C@@H]2O	yes (1)
CN(/N=C\c1ccc2ccccc2c1)C1=NCCCCN1	no (0)

Now for a further molecule.
Query string: Just curious, what result did COC(=O)/C=C\C(C#N)(C#N)/N=C/c1ccc(OC)cc1 get here?
Result string: no (0)

###

System: NCI-H522
ASSAY_METHOD_TEXT: NCI tumour cell line growth inhibition, 48 h
Counter-ions that a name gives are not always drawn. Active and inactive are the calls of the source. Cut-off read from the data, not from the text of the source: active = GI50 up to about 1.1 µM and inactive = higher.
Your response should consist of one outcome taken from true = active, false = inactive

Below, 6 compounds whose answers are already recorded.
COMPOUND	CLASS_NAME
CC(=O)O[C@H]1C(=O)[C@@]2(C)[C@H]([C@H](OC(=O)c3ccccc3)[C@]3(O)C[C@H](OC(=O)[C@H](O)[C@@H](NC(=O)c4ccccc4)c4ccccc4C)C(C)=C1C3(C)C)[C@]1(OC(C)=O)CO[C@@H]1C[C@@H]2O	true
O=C1C=C/C(=N/c2ccccc2)c2ccccc21	false
CC1C/C(=N\N(C)C)C(C#N)(C#N)C1(C#N)C#N (stereo unspecified)	false
CN1C[C@H](C(=O)N[C@]2(C)O[C@@]3(O)[C@@H]4CCCN4C(=O)[C@H](Cc4ccccc4)N3C2=O)C=C2c3cccc4[nH]cc(c34)C[C@H]21 [ERGOTAMINE TARTRATE]	false
O=C/C1=C/C2=Cc3ccccc3C=C(/C=C(/C=O)C1)C2	false
O=c1[nH]nc(Nc2ccc(Cl)cc2)c2nnn(C3CCCCC3)c12	false

Query string: # outcome recorded in this test, key = N=C(N)C(/N=N\c1ccccc1)C(N)=O (stereo unspecified)
Result string: false

Query string: Field: outcome | Entry: Oc1ccccc1C(c1cc2c(cc1O)OCO2)N1CCOCC1 (stereo unspecified)
Result string: false

Query string: Recorded test call requested for CC1=C(C)C1[N+](=O)[O-]
Result string: false

Query string: Lab log entry: CSCCC(NC(c1ccccc1)c1ccccc1)[PH](=O)O (stereo unspecified) — outcome as called in the assay?
Result string: false

Query string: Please state the recorded outcome for this compound: CN/C(=N\CCSCc1nc[nH]c1C)NC#N
Result string: false

Query string: Query: recorded result category for O=C(O)c1ccccc1C(=O)c1ccc2c(c1)Cc1ccccc1-2 in this test
Result string: false

Query string: Per the records of this test, what outcome belongs to O=[N+]([O-])c1ccc(Cl)cc1-n1nc(-c2ccccc2)cc1-c1ccccc1 ?
Result string: false

Query string: For O=C1C(=Cc2c(O)cc(O)cc2O)C(=O)c2ccccc21 , what call appears in the results of this test?
Result string: false

Query string: Which outcome did this test record for the compound COc1cc(CCCOC(=O)/C=C/c2ccc(O)c(O)c2)cc(O)c1O ?
Result string: false

Query string: Please state the recorded outcome for this compound: CC1(C)CO[P@@](=S)(c2ccccn2)O[C@@H]1c1ccccc1
Result string: false

###

Test system: A549
ASSAY_METHOD_TEXT: NCI tumour cell line growth inhibition, 48 h
Active and inactive are the calls of the source. No stated cut-off is given here; in the data, active = GI50 up to about 1.1 µM and inactive = higher.
Your answer must be one of the following: active, inactive

COMPOUND	CLASS_NAME
Cc1ccccc1NC(=O)C(=O)CC(=O)c1sc(-n2nc(-c3ccccc3)cc2-c2ccccc2)nc1C	inactive
N/N=C(\N)SCCCCCCCCCCS/C(N)=N/N	inactive
CN(CC1(CO)CCC1)c1cc(Cl)nc(N)n1	inactive
COc1ccc(N2C(=O)CS(=O)(=O)C2c2cccc(Oc3ccccc3)c2)cc1 (stereo not given)	inactive
Cc1ccc(S(=O)(=O)N2CCSCCSCCSCCSCC2)cc1	inactive

Query string: For N=C(N)C(/N=N\c1ccccc1)C(N)=O (stereo not given) , which call appears in the assay record?
Result string: inactive

Query string: Could you kindly confirm the outcome this assay logged for NC(CCOCCP(=O)(O)O)C(=O)O (stereo not given) ?
Result string: inactive

Query string: Entry CC1(C)CCCC2(C)C3C(O)CC2(C)C(O)C31 (stereo not given) : call = ?
Result string: inactive

Query string: Any idea what this test logged for S=c1sc2sc(=S)sc2s1 ?
Result string: inactive

Query string: // return assay outcome for COC1/C=C/C(C)C(OC)CC(O)/C=C/C(C)C(C(C)C(OC)C(C)CCC(=O)C(C)C(C/C=C/N(C)C=O)OC)OC(=O)/C=C/C=C(\C)CC(OC)CC2=CC(=O)O[C@@H](C(C)C(OC)C1)[C@H]2O (stereo not given in full)
Result string: active

Query string: So what was the verdict on OCCN1CN(c2nc(N3CN(CCO)C3)nc(N3CN(CCO)C3)n2)C1 in this test?
Result string: inactive

###

Tested on: SF-539
ASSAY_METHOD_TEXT: NCI tumour cell line growth inhibition, 48 h
Calls of active or inactive are those of the source. Cut-off read from the data, not from the text of the source: active = GI50 up to about 1.1 µM and inactive = higher.
Choose the fitting class; nothing outside YES for active, NO for inactive is accepted.

# example entries with known answers
> print(dat)
                                   compound  class.name
1  OCC1OC(c2ccccc2)CC1O (configuration not stated)          NO
2  CC(=O)N1C(=O)CC2(N=C(C)CC2=O)c2ccccc21 (configuration not stated)         YES
3  O=C1c2ccccc2C(=O)c2sc(Nc3ccc(Cl)cc3)nc21          NO

Query string: Please state the recorded outcome for this compound: CC1(C)COC(c2ccc(C(F)(F)F)cc2C(O)c2ccc3ccccc3c2)=N1 (configuration not stated)
Result string: NO

Query string: Please share the test call associated with CC1(c2cccc(C3CC4(CCC3=O)OCCCCO4)c2)OCCO1 (configuration not stated) .
Result string: NO

Hey, just so you know, these numbers are from ChEMBL document CHEMBL1201862.
